Molecular target: Gamma-secretase
Experiment: Inhibition of gamma-secretase in human SHSY5Y cells expressing human recombinant APP assessed as amyloid beta40 formation by ELISA
Assay type: cell-based
Details: sh-sy5y; in the assay text read “amyloid beta42 formation” for “amyloid beta40 formation”
Property: pIC50
// return just the number, without any unit appended

Consider the reported pIC50 for these compounds:
>  <Compound Structure>
CC(C)CC[C@H](c1ncc(C(C)C)cn1)N1CC[C@@H](CC(=O)[O-])C[C@H]1c1ccc(C(F)(F)F)cc1.[Na+]

>  <pIC50>
6.1

$$$$
>  <Compound Structure>
O=C(O)Cc1ccc(-c2ccc(C(F)(F)F)cc2)c(-c2ccc(C(F)(F)F)cc2)c1

>  <pIC50>
5.7

$$$$
>  <Compound Structure>
CCCCCC[C@H](c1ccc(C(F)(F)F)nc1)N1CC[C@@H](CC(=O)[O-])C[C@H]1c1ccc(C(F)(F)F)cc1.[Na+]

>  <pIC50>
6.3

$$$$

Please look at the following compound next.
So what's the measured pIC50 for this one? CC(C)CC[C@H](c1ncc(C(F)(F)F)cn1)N1CC[C@@H](CC(=O)[O-])C[C@H]1c1ccc(C(F)(F)F)cc1.[Na+] 6.1
